Provenance of the data: patent US20260151516A1

Test: Biodistribution studies incl. blocking experiments
Type: in vivo
Settings: healthy BALB/c mice, 10 min p.i.
metric: Biodistribution Intestine (% ID/g)
Answer format: numeric, % ID/g implied, no suffix.

Data request: GET /values?readout=Biodistribution Intestine&item= CC(=O)N[C@H]1[C@H](OCCOCCOCCn2cc(CNC(=O)CCP(=O)([O-])CN3CCN(CP(=O)([O-])CCC(=O)NCc4cn(CCOCCOCCO[C@@H]5O[C@H](CO)[C@H](O)[C@H](O)[C@H]5NC(C)=O)nn4)CCN(CP(=O)([O-])CCC(=O)NCc4cn(CCOCCOCCO[C@@H]5O[C@H](CO)[C@H](O)[C@H](O)[C@H]5NC(C)=O)nn4)CC3)nn2)O[C@H](CO)[C@H](O)[C@@H]1O.[68Ga+3] [[^68Ga]Ga-TRAP-GalNAc]
Data returned: 0.63
